Below: a set of entries, each annotated with reported HepG2 MIC50.
Tested on: HepG2 cells
Experiment: Mammalian cell toxicity (Cell Titer-Glo)
Type: cell-based
Settings: Table 6, 48 h incubation
Procedure: Mammalian Cell Toxicity. HepG2 cells were seeded overnight at 500 cells/well in 384-well plate, then incubated with compounds (10-point concentration titration) for 48 h. Cell Titer-Glo® reagent ([…]) was added to each well and after 10-minute incubation at room temperature the luminescent signal was measured using an Envision plate reader (Perkin Elmer).

Exercise: // returns reported HepG2 MIC50 for input CC(O)c1c(C(=O)NC2CCN(CC(O)(Cn3cncn3)c3ccc(F)cc3F)CC2)sc2nc(N)c(=O)n(-c3ccc4ccn(-c5ccccc5)c4c3)c12 (stereo not drawn) [Compound I-56]
Solution: >10 µM

Exercise: Ok, now Nc1nc2sc(C(=O)NC3CCN(C[C@](O)(Cn4cncn4)c4ccc(F)cc4F)CC3)cc2n(-c2ccc3c(c2)N(c2ccccc2)CCC3)c1=O [Compound I-21]
Solution: >50 µM

Exercise: What do you have for Nc1nc2scc(C(=O)NC3CCN(CC(O)(Cn4cncn4)c4ccc(F)cc4F)CC3)c2n(-c2ccc3c(c2)N(c2ccccc2)CCO3)c1=O (stereo not drawn) [Compound I-18] ?
Solution: >50 µM

###

As a worked illustration, we turn to pKd data collected for Hsp90 Nuclear Binding Domain (NBD) (Aspergillus fumigatus, UniProt P40292).
Quick note: pKd means taking -log10 of the concentration in moles per liter.

# annotated cases, reported pKd shown
compound	pKd
Nc1nc2sc(-c3nc(C(=O)NCC(O)(Cn4cncn4)c4ccc(F)cc4F)no3)cc2n(-c2ccc3c(c2)N(c2ccccc2)CCO3)c1=O (stereo not shown)	7.33
Nc1nc2sc(-c3cn(C4CCN(CC(O)(Cn5cncn5)c5ccc(F)cc5F)CC4)nn3)cc2n(-c2ccc3c(c2)N(c2ccccc2)CCO3)c1=O (stereo not shown)	7.84
CC1CC(NCc2cc3c(nc(N)c(=O)n3-c3ccc4c(c3)N(c3ccccc3)CCO4)s2)CCN1CC(O)(Cn1cncn1)c1ccc(F)cc1F (stereo not shown)	6.17
Nc1nc2sc(CN[C@H]3[C@@H]4CN(C[C@](O)(Cn5cncn5)c5ccc(F)cc5F)C[C@@H]43)cc2n(-c2ccc3c(c2)N(c2ccccc2)CCO3)c1=O	6.05
Nc1nc2sc(C(=O)NC3CCN(CC(O)(Cn4cncn4)c4ccc(F)cc4F)CC3)cc2n(-c2ccc3c(c2)N(c2ccccc2)CCO3)c1=O (stereo not shown)	6.95
Nc1nc2sc(C(=O)NCCN3CCN(CC(O)(Cn4cncn4)c4ccc(F)cc4F)CC3)cc2n(-c2ccc3c(c2)N(c2ccccc2)CCO3)c1=O (stereo not shown)	6.73

Exercise: Would you kindly share the measured pKd for Nc1nc2sc(CN[C@@H]3CCN(CC(O)(Cn4cncn4)c4ccc(F)cc4F)C3)cc2n(-c2ccc3c(c2)N(c2ccccc2)CCO3)c1=O (stereo partly shown) ?
Solution: 6.43

###

Target: Hsp90 Nuclear Binding Domain (NBD) (Candida albicans (strain SC5314 / ATCC MYA-2876) (Yeast))
Test: Surface Plasmon Resonance (SPR) binding, C. albicans Hsp90 NBD
Settings: biotinylated Hsp90 NBD on streptavidin chip, 25° C., 1:1 binding model
Method: Surface Plasmon Resonance (SPR) Experiments. SPR experiments were performed on a Biacore S200 instrument at 25° C. Biotinylated Hsp90 Nuclear Binding Domain (NBD) was diluted to 40 μg/mL and immobilized on a streptavidin chip (Sensor Chip SA, GE Healthcare) at a density of 2000-2500 response units (RU) on the biosensor surface. […]
pKd: −log10 of the molar value.
Values of pKd greater than or equal to 8 map to Fulfilled; values below map to Not fulfilled.

See these solved cases before continuing.
compound	category
Nc1nc2sc(C(=O)NC3CCN(C[C@](O)(Cn4cncn4)c4ccc(F)cc4F)CC3)cc2n(-c2ccc3ccn(-c4ccccc4)c3c2)c1=O [Compound I-23]	Not fulfilled
Nc1nc2sc(CNCC3CCN(C[C@@](O)(Cn4cncn4)c4ccc(F)cc4F)CC3)cc2n(-c2ccc3c(c2)N(c2ccccc2)CCO3)c1=O [Compound I-122]	Not fulfilled
Nc1nc2scc(C(=O)NC3CCN(CC(O)(Cn4cncn4)c4ccc(F)cc4F)CC3)c2n(-c2ccc3c(c2)N(c2ccccc2)CCO3)c1=O (stereo not drawn) [Compound I-18]	Not fulfilled

Exercise: Exam item: decide whether the reported pKd for Nc1nc2sc(C(=O)N[C@H]3CCN(CC(O)(Cn4cncn4)c4ccc(F)cc4F)C3)cc2n(-c2ccc3c(c2)N(c2ccccc2)CCO3)c1=O (stereo partly drawn) [Compound I-14] is at least 8.
Solution: Not fulfilled

Exercise: What do we get for Nc1nc2sc(CNC(=O)C3CCN(CC(O)(Cn4cncn4)c4ccc(F)cc4F)CC3)cc2n(-c2ccc3c(c2)N(c2ccccc2)CCO3)c1=O (stereo not drawn) [Compound I-140] ?
Solution: Not fulfilled

Exercise: What about this compound? Nc1nc2sc(-c3cn(C4CCN(CC(O)(Cn5cncn5)c5ccc(F)cc5F)CC4)nn3)cc2n(-c2ccc3c(c2)N(c2ccccc2)CCO3)c1=O (stereo not drawn) [Compound I-51]
Solution: Fulfilled

Exercise: Proceed to Cc1ccc(-n2c(=O)c(N)nc3sc(C(=O)NC4CCN(C[C@](O)(Cn5cncn5)c5ccc(F)cc5F)CC4)cc32)cc1Oc1ccccc1 [Compound I-25]
Solution: Not fulfilled

Exercise: For Nc1nc2sc(C(=O)NC3CCN(CC4COC(Cn5cncn5)(c5ccc(F)cc5F)C4)CC3)cc2n(-c2ccc3c(c2)N(c2ccccc2)CCO3)c1=O (stereo not drawn) [Compound I-32] then?
Solution: Fulfilled

Exercise: Also, Nc1nc2sc(CNC3CCN(C[C@](O)(Cn4cncn4)c4ccc(F)cc4F)CC3)cc2n(-c2ccc3c(c2)N(c2ccccc2)CCO3)c1=O [Compound I-63] please.
Solution: Not fulfilled

Exercise: And the next one, Nc1nc2sc(CN[C@H]3[C@@H]4CN(C[C@@](O)(Cn5cncn5)c5ccc(F)cc5F)C[C@@H]43)cc2n(-c2ccc3c(c2)N(c2ccccc2)CCO3)c1=O [Compound I-127] ?
Solution: Not fulfilled

###

Catalogue of log10 of MIC50 readings, one per entry.
Tested on: CaCl2
Assay: Antifungal sensitivity testing (broth microdilution MIC)
Format: cell-based
Conditions: Table 4; 96-well broth microdilution
Values reflect log10 of reported MIC50 (µM).

Please review the entries below; each comes with its answer.
compound	log10 of MIC50
Nc1nc2sc(C(=O)NCCN3CCN(CC(O)(Cn4cncn4)c4ccc(F)cc4F)CC3)cc2n(-c2ccc3c(c2)N(c2ccccc2)CCO3)c1=O (centres unmarked)	0.44
CC1(NC(=O)c2cc3c(nc(N)c(=O)n3-c3ccc4c(c3)N(c3ccccc3)CCO4)s2)CCN(C[C@](O)(Cn2cncn2)c2ccc(F)cc2F)CC1	0.18
CC(F)(F)COC(=O)N1Cc2nc(N)nc(-c3c(Cl)cc(Cl)cc3OCCC(O)(Cn3cncn3)c3ccc(F)cc3F)c2C1 (centres unmarked)	0.81
Nc1nc2scc(C(=O)NC3CCN(C[C@](O)(Cn4cncn4)c4ccc(F)cc4F)CC3)c2n(-c2ccc3c(c2)N(c2ccccc2)CCO3)c1=O	1.40

Turning to the following compound.
Exercise: Param item = CC(O)c1c(C(=O)NC2CCN(CC(O)(Cn3cncn3)c3ccc(F)cc3F)CC2)sc2nc(N)c(=O)n(-c3ccc4ccn(-c5ccccc5)c4c3)c12 (centres unmarked) ; retrieve measured log10 of MIC50.
Solution: 0.48

###

Target: Hsp90 Nuclear Binding Domain (NBD) (Candida albicans (strain SC5314 / ATCC MYA-2876) (Yeast), UniProt P46598)
Sequence (P46598 1-218 limits assumed): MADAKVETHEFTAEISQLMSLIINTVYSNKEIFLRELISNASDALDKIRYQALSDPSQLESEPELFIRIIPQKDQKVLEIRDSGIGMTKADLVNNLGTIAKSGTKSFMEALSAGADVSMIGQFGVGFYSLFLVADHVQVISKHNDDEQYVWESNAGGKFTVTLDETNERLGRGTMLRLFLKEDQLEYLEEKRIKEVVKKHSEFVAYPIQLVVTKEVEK
Assay: Surface Plasmon Resonance (SPR) binding, C. albicans Hsp90 NBD
Details: biotinylated Hsp90 NBD on streptavidin chip, 25° C., 1:1 binding model
Listed next: entries and their corresponding pKd.
Scale explanation: pKd corresponds to minus log10 of a concentration expressed in moles per litre.

compound	value
Nc1nc2sc(CNCC(O)(Cn3cncn3)c3ccc(F)cc3F)cc2n(-c2ccc3c(c2)N(c2ccccc2)CCO3)c1=O (stereo not drawn) [Compound I-82]	6.08
COC(=O)c1c(C(=O)NC2CCN(CC(O)(Cn3cncn3)c3ccc(F)cc3F)CC2)sc2nc(N)c(=O)n(-c3ccc4c(c3)N(c3ccccc3)CCO4)c12 (stereo not drawn) [Compound I-55]	6.50

Below: the item to evaluate.
Exercise: What value of pKd has been recorded for this entry: Nc1nc2scc(C(=O)N[C@H]3CCN(CC(O)(Cn4cncn4)c4ccc(F)cc4F)C3)c2n(-c2ccc3c(c2)N(c2ccccc2)CCO3)c1=O (stereo partly drawn) [Compound I-17]
Solution: 5.57

###

System: CaCl2
Assay: Antifungal sensitivity testing (broth microdilution MIC)
Type: cell-based
Settings: Table 4; 96-well broth microdilution
experimental-endpoint: MIC50 (µM)
Report only the number, with the unit µM understood.

Exercise: Can you look up MIC50 on CaCl2 for Nc1nc2sc(C(=O)NC3CCN(CC(O)(Cn4cncn4)c4ccc(F)cc4F)CC3)cc2n(-c2ccc3c(c2)N(c2ccccc2)CCC3)c1=O (stereo not shown) [Compound I-16] ?
Solution: 0.6

Exercise: Param item: Nc1nc2sc(C(=O)N[C@@H]3CCN(CC[C@@](O)(Cn4cncn4)c4ccc(F)cc4F)C3)cc2n(-c2ccc3c(c2)N(c2ccccc2)CCO3)c1=O [Compound I-70]
Solution: 5.75

Exercise: Would you mind doing Nc1nc2sc(CN3CCC(NCC(O)(Cn4cncn4)c4ccc(F)cc4F)CC3)cc2n(-c2ccc3c(c2)N(c2ccccc2)CCO3)c1=O (stereo not shown) [Compound I-134] as well?
Solution: 3.13

Exercise: // same read-out, input: Nc1nc2sc(CN[C@H]3CCN(CC(O)(Cn4cncn4)c4ccc(F)cc4F)C3)cc2n(-c2ccc3c(c2)N(c2ccccc2)CCO3)c1=O (stereo partly shown) [Compound I-71]
Solution: 6.25
